I'd appreciate it if you could supply EC50, PRNT with complement, RSV 18537 values for the items below.
Substrate: F protein of RSV strain 18537 (human respiratory syncytial virus strain 18537 (subtype B)) (UniProt P13843)
Sequence (P13843 26-574): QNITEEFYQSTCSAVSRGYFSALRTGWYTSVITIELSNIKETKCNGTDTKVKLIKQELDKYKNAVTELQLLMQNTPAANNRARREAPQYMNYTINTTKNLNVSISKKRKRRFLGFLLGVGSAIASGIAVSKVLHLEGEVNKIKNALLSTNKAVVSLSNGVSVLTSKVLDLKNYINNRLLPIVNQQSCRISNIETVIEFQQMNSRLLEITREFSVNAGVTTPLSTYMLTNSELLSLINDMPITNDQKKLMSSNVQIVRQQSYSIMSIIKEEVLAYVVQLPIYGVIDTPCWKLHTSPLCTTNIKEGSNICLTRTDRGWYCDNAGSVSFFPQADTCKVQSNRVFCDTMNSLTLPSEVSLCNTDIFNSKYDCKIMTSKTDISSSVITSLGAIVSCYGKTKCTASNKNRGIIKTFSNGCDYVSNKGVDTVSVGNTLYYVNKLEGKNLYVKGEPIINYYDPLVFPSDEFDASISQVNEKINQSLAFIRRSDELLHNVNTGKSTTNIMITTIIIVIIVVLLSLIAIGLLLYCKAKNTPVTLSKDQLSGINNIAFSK
assay: cell-based or functional assay
Your answer is read as µg/mL, so omit the unit and give the number.

Short answer for antibody 831 (clone 831) (antibody, human IgG1, kappa, V domains shown) VH: QVQLVQSGAEVKKPGASVKVSCKASANIFTYAMHWVRQAPGQRLEWMGWINVGNGQTKYSQRFQGRVTITRDTSATTAYMELSTLRSEDTAVYYCARRASQYGEVYGNYFDYWGQGTLVTVSS VL: DIQMTQSPSTLSASVGDRLTITCRASQNIYNWLAWYQQKPGKAPKLLIYDASTLESGVPSRFSGSGSGTEFTLTISSLQPDDFATYYCQQYNSLSPTFGQGTKVEIKR : EC50, PRNT with complement, RSV 18537 was 0.72

Short answer for antibody 880 (clone 880) (antibody, human IgG1, kappa, V domains shown) VH: QITLKESGPTLVRPTQTLTLTCTFSGFSLSTSKLGVGWIRQPPGKALEWLALVDWDDDRRYRPSLKSRLTVTKDTSKNQVVLTMTNMDPVDTATYYCAHSAYYTSSGYYLQYFHHWGPGTLVTVSS VL: DIQMTQSPSSLAASVGDRVTITCRASQTIASYVNWYQQKPGKAPNLLIYAASSLQSGVPSRFSGSGSGTDFTLTISSLQPEDFASYFCQQSYSFPYTFGQGTKLDIKR : EC50, PRNT with complement, RSV 18537 was 0.95

Short answer for antibody 818 (clone 818) (antibody, human IgG1, kappa, V domains shown) VH: QVTLRESGPAVVKPTETLTLTCAFSGFSLNAGRVGVSWIRQPPGQAPEWLARIDWDDDKAFRTSLKTRLSISKDSSKNQVVLTLSNMDPADTATYYCARTQVFASGGYYLYYLDHWGQGTLVTVSS VL: DIQMTQSPSSLSASVGDRVTITCRASQTIASYVNWYQQKPGRAPSLLIYAASNLQSGVPPRFSGSGSGTDFTLTISGLQPDDFATYYCQQSYSYRALTFGGGTKVEIKR : EC50, PRNT with complement, RSV 18537 was 0.21
